target: delta opioid receptor (Rattus norvegicus, UniProt P33533); construct: from tissue; host or cells: forebrain of male Wistar rats; experiment: Rat brain delta opioid receptor binding assay; details: [3H]naltrindole ligand; read-out: δ-binding (Naltrindole ligand) Ki
Sequence (P33533 whole entry): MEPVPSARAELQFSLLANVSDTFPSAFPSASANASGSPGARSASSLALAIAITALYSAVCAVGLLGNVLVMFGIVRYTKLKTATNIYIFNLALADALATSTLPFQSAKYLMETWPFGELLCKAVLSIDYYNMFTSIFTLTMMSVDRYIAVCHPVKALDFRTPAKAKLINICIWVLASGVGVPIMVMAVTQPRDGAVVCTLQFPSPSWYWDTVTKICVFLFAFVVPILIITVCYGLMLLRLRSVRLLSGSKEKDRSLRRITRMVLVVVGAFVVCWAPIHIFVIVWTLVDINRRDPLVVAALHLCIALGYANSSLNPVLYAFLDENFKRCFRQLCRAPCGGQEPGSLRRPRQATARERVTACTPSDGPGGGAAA
Parameter measured: Ki (nM)

{"Smiles data": "c1cn(-c2ccc(Oc3nc(-c4cncnc4)cnc3NC[C@@H]3CCCN3)cc2)cn1", "Ki / nM": 411}

A. N#Cc1cncc(-c2cnc(NC[C@@H]3CCCN3)c(Oc3cccc(O)c3)n2)c1
B. Cc1ccc(Oc2nc(-c3cncc(C#N)c3)cnc2NC[C@@H]2CCCN2)cn1
Query string: // compare measured Ki between A and B ; output the lower one In your reply, give the label of the chosen option.
Result string: A

a. COc1ccc(Oc2nc(-c3cncc(C#N)c3)cnc2NCC2(N)CCCC2)cc1
b. Oc1cccc(Oc2nc(-c3cncnc3)cnc2NC[C@@H]2CCCN2)c1
Query string: // compare measured Ki between a and b ; output the lower one In your reply, give the label of the chosen option.
Result string: b
(b: 0.4 nM, a: 0.6 nM)

###

biological target: δ-opioid receptor (Mus musculus); construct: NG108-15 cell membranes were purchased from Applied Cell Sciences (Rockville, Md.); host or cells: NG108-15 cell membranes (purchased); test: [35S]GTPγS binding assay in NG108-15 cell membranes (delta opioid functional assay); type: biochemical; details: read-out: GTPγS δ-opioid receptor EC50
Sequence (P32300 whole entry): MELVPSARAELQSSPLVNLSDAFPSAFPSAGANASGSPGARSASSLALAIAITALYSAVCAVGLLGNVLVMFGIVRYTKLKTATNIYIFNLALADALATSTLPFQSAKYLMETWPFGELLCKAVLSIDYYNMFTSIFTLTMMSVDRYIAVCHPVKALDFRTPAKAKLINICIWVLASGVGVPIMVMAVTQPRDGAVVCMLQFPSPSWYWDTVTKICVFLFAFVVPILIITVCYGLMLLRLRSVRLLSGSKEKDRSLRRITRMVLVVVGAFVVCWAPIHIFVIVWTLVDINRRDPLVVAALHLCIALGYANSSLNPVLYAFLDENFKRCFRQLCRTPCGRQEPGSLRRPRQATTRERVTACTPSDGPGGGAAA
Parameter measured: EC50 (nM)

# example entries with known answers
{"Compound": "N#Cc1cncc(-c2cnc(NC[C@@H]3CCCN3)c(Oc3ccc4occc4c3)n2)c1 [Cpd 39]", "Parameter measured": "EC50", "Numeric readout": 4.6}
{"Compound": "COc1ccc(Oc2nc(C#Cc3cccnc3)cnc2NC[C@@H]2CCCN2)cc1 [Cpd 3]", "Parameter measured": "EC50", "Numeric readout": 46.2}
{"Compound": "N#Cc1cncc(-c2cnc(NC[C@@H]3CCCN3)c(Oc3cccc(O)c3)n2)c1 [Cpd 38]", "Parameter measured": "EC50", "Numeric readout": 66.6}
{"Compound": "N#CCc1ccc(Oc2nc(-c3cncc(C#N)c3)cnc2NC[C@@H]2CCCN2)cc1 [Cpd 27]", "Parameter measured": "EC50", "Numeric readout": 34.2}
{"Compound": "COc1ccc(Oc2nc(-c3cncnc3)cnc2NC[C@@H]2CCCN2)cc1 [Cpd 5]", "Parameter measured": "EC50", "Numeric readout": 349}
{"Compound": "CCc1ccc(Oc2nc(-c3cncnc3)cnc2NC[C@@H]2CCCN2)cc1 [Cpd 6]", "Parameter measured": "EC50", "Numeric readout": 460}
{"Compound": "COc1ccc(Oc2nc(-c3cncc(C#N)c3)cnc2NC[C@@H]2CCCN2)cc1F [Cpd 25]", "Parameter measured": "EC50", "Numeric readout": 31.3}
{"Compound": "COc1ccc(Oc2nc(-c3ccc(OC)nc3)cnc2NC[C@@H]2CCCN2)cc1 [Cpd 1]", "Parameter measured": "EC50", "Numeric readout": 58.5}
{"Compound": "COc1ccc(Oc2nc(-c3cncc(C#N)c3)cnc2N2CCNCC2)cc1 [Cpd 30]", "Parameter measured": "EC50", "Numeric readout": 111}
{"Compound": "N#Cc1cncc(-c2cnc(NC[C@@H]3CCCN3)c(Oc3ccc(OC(F)(F)F)cc3)n2)c1 [Cpd 36]", "Parameter measured": "EC50", "Numeric readout": 29.7}

1. N#Cc1cncc(-c2cnc(NC[C@@H]3CCCN3)c(Oc3cccc(Cl)c3)n2)c1 [Cpd 42]
2. COc1ccc(Oc2nc(-c3cncnc3)cnc2NC[C@@H]2CCCN2)c(F)c1 [Cpd 9]
Query string: // compare measured EC50 between 1 and 2 ; output the lower one In your reply, give the label of the chosen option.
Result string: 1
(1: 84.4 nM, 2: 281 nM)
